Tested on: Escherichia coli TOP10;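 further: peptides expressed intracellularly from a pBAD plasmid library in pooled LB shake-flask culture, induced with 0.3% L-arabinose, DNA abundance read by NGS, three biological replicates, DESeq2 with apeglm shrinkage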
Assay: shrunken log2 fold change of peptide-encoding DNA abundance (4.5 h post-induction vs induction); higher = less antimicrobial activity (less host growth inhibition)
Details: time post-induction: 4.5 h; library: site-saturation at positions 5, 18, 19, 20
Classes by shrunken log2 fold change: low = under -0.1, moderate = from -0.1 up to 0.1, high = 0.1 and over

Worked examples follow.
RRIRNRPPRLPRPRPRPVDNPRP ... high
RRIRSRPPRLPRPRPRPKCLPRP ... moderate
RRIRRRPPRLPRPRPRPYVHPRP ... low
RRIRWRPPRLPRPRPRPWSVPRP ... low
RRIRCRPPRLPRPRPRPITLPRP ... low

input: In plain terms, what class is `RRIRVRPPRLPRPRPRPLMMPRP` ?
output: low

input: In plain terms, what class is `RRIRWRPPRLPRPRPRPKVIPRP` ?
output: moderate

input: In plain terms, what class is `RRIRMRPPRLPRPRPRPDWWPRP` ?
output: high

input: In plain terms, what class is `RRIRYRPPRLPRPRPRPWGLPRP` ?
output: moderate

input: In plain terms, what class is `RRIRARPPRLPRPRPRPNNFPRP` ?
output: low

input: In plain terms, what class is `RRIRCRPPRLPRPRPRPRGIPRP` ?
output: moderate

input: In plain terms, what class is `RRIRDRPPRLPRPRPRPFNYPRP` ?
output: moderate

input: In plain terms, what class is `RRIRPRPPRLPRPRPRPMEYPRP` ?
output: moderate
